Hello, the source for this data is patent CN115073593A, in case you need it.

target: 生物素化的SARS-CoV-2 RBD (SARS-CoV-2, UniProt P0DTC2 319-541); experiment: ELISA screen, Fab culture supernatant on streptavidin-captured biotinylated RBD
measured_endpoint: binding result

CB6-23 (轻链突变库克隆) (Fab, V domains shown, also called CB6-23-VL; CB6-23-LC) VH: EVQLVESGGGLVQPGGSLRLSCAASGFTVSSNYMSWVRQAPGKGLEWVSVIYSGGSTFYADSVKGRFTISRDNSMNTLFLQMNSLRAEDTAVYYCARVLPMYGDYLDYWGQGTLVTVSS VL: DIVMTQSPSSLSASVGDRVTITCRASQWIPSYLNWYQQKPGKAPKLLIYAASSLQSGVPSRFSGSGSGTDFTLTISSLQPEDFATYYCQQSKSWKPEYTFGQGTKLEIK: binds
CB6-15 (重链突变库克隆) (Fab, also called CB6-15-VH; CB6-15-HC) VH: EVQLVESGGGLVQPGGSLRLSCAASGFQVNRNYMSWVRQAPGKGLEWVSVIYPGGSTFYADSVKGRFTISRDNSMNTLFLQMNSLRAEDTAVYYCARVLPMYGDYLDYWGQGTLVTVSS light: […]: binds
CB6-21 (轻链突变库克隆) (Fab, V domains shown, also called CB6-21-VL; CB6-21-LC) VH: EVQLVESGGGLVQPGGSLRLSCAASGFTVSSNYMSWVRQAPGKGLEWVSVIYSGGSTFYADSVKGRFTISRDNSMNTLFLQMNSLRAEDTAVYYCARVLPMYGDYLDYWGQGTLVTVSS VL: DIVMTQSPSSLSASVGDRVTITCRASQWIGNYLNWYQQKPGKAPKLLIYAASSLQSGVPSRFSGSGSGTDFTLTISSLQPEDFATYYCQQSTSNRPEYTFGQGTKLEIK: binds
